test system: MCF10A; experiment: percent viability (nuclei count relative to siNT); higher = more viable cells; conditions: 20 nM; 72 h
Measured metric: percent viability

Examples with answers:
{"columns": ["Sequence input", "Value observed"],
 "data": [
  ["UGGCCCAAGACCUCAGACC [hsa-miR-7155-3p]", "35.1%"],
  ["AGUGGCACAUGUUUGUUGUGAG [hsa-miR-891a-3p]", "32.1%"],
  ["CGCAGGGGCCGGGUGCUCACCG [hsa-miR-1909-3p]", "26.7%"],
  ["AAGUGAUCUAAAGGCCUACAU [hsa-miR-1245a]", "48.6%"],
  ["UAGGAUUACAAGUGUCGGCCAC [hsa-miR-3159]", "44.9%"],
  ["UGAGGUGGUAGGAUGUAGA [hsa-miR-6134]", "12%"],
  ["UCUAGUGCGGGCGUUCCCG [hsa-miR-6080]", "85.3%"],
  ["UAUGUGGGAUGGUAAACCGCUU [hsa-miR-299-3p]", "45.6%"],
  ["UACAGUACUGUGAUAACUGAA [hsa-miR-101-3p]", "86%"],
  ["GCUGGUCUGCGUGGUGCUCGG [hsa-miR-3663-5p]", "123%"]
]}

INPUT: Indicate its recorded percent viability; the sequence in question is UCCGGUUCUCAGGGCUCCACC [hsa-miR-671-3p]
OUTPUT: 15.2%

INPUT: Tell me its percent viability given GAGGAAACUGAAGCUGAGAGGG [hsa-miR-4496] as the entry.
OUTPUT: 88.3%

---

tested on: MCF10A; assay: percent viability (nuclei count relative to siNT); higher = more viable cells; details: 20 nM; 72 h
Recorded measurements of percent viability, one per entry
# unit: % | format: bare number

{"columns": ["Sequence input", "Target", "Units of measure", "percent viability"],
 "data": [
  ["AGAAUUGUGGCUGGACAUCUGU [hsa-miR-219-2-3p]", "MCF10A", "%", 33.5],
  ["GCCCCGGCGCGGGCGGGUUCUGG [hsa-miR-4707-5p]", "MCF10A", "%", 116]
]}

INPUT: Complete the entry with percent viability for UGUGUUAGAAUAGGGGCAAUAA [hsa-miR-3152-3p]
OUTPUT: 35.1

INPUT: Report measured percent viability; entry is CAGUUAUCACAGUGCUGAUGCU [hsa-miR-101-5p]
OUTPUT: 33.9

INPUT: In one line, give reported percent viability of the entry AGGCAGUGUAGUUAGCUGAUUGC [hsa-miR-34c-5p] .
OUTPUT: 13.2

INPUT: Provide only the value of recorded percent viability for AGGUAGACUGGGAUUUGUUGUU [hsa-miR-3529-5p]
OUTPUT: 21.7

INPUT: Return percent viability (reported value) for this sequence: UCUGGCCAGCUACGUCCCCA [hsa-miR-3190-5p]
OUTPUT: 48.9

INPUT: State its percent viability: CCAGGGAGGCUGGUUUGGAGGA [hsa-miR-6754-5p]
OUTPUT: 38

INPUT: Note down percent viability recorded for AGUAUGUUCUUCCAGGACAGAAC [hsa-miR-567]
OUTPUT: 56.1

INPUT: Please give the documented percent viability of UAGGGUAGACACUGACAACGUU [hsa-miR-6755-5p]
OUTPUT: 19.9

INPUT: Check the records and state percent viability for UCUAGGCUGGUACUGCUGA [hsa-miR-645]
OUTPUT: 59.5
